Task for the reader: assign each of the following variants its reported protein stability index.
B1: EDARADD (parent)
chain: VEKVLRRWVDEEWPKRERGDPSRH

variants of: B1; assay: protein stability index of a GFP-peptide fusion (GPS, HEK-293T) (PSI 1-6); higher = more stable; conditions: c terminus: a fixed tail appended;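 note: lentivirally expressed fusions sorted by FACS into six bins by GFP to DsRed ratio, PSI derived from sequencing read proportions per bin multiplied by bin number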
// response body must contain only the number

Find the recorded protein stability index belonging to VDKVLRRWVDEEWPKRERGDPSRH and report it.
2.9

Find the recorded protein stability index belonging to VEKVLRRWVDEEWPKRERGDPHRH and report it.
2.55

Find the recorded protein stability index belonging to VEKVLRRWVDEEWPKRERGDYSRH and report it.
2.34

Find the recorded protein stability index belonging to VEKVLRRWVDEEWPKRERGDPSNH and report it.
2.81

Find the recorded protein stability index belonging to VEKVLRRWVDAEWPKRERGDPSRH and report it.
2.73

Find the recorded protein stability index belonging to VEKVLRRWIDEEWPKRERGDPSRH and report it.
2.38

Find the recorded protein stability index belonging to VEKVLRRWVDEEWPFRERGDPSRH and report it.
2.74

Find the recorded protein stability index belonging to VEKVLGRWVDEEWPKRERGDPSRH and report it.
3.12

Find the recorded protein stability index belonging to VEKVLMRWVDEEWPKRERGDPSRH and report it.
3.14

Find the recorded protein stability index belonging to VEKVLRRWVDEEWPKRERGDRSRH and report it.
2.4

Find the recorded protein stability index belonging to VEKVLRRWVDEEWPPRERGDPSRH and report it.
3.58

Find the recorded protein stability index belonging to VEKVLRRWVHEEWPKRERGDPSRH and report it.
2.44

Find the recorded protein stability index belonging to VEKDLRRWVDEEWPKRERGDPSRH and report it.
4.08

Find the recorded protein stability index belonging to VEKVLRRWVDEEWPKRERGDPSAH and report it.
2.83

Find the recorded protein stability index belonging to VEKVLRRWVDEEWPKRERGDPIRH and report it.
2.52

Find the recorded protein stability index belonging to VEKVLRRRVDEEWPKRERGDPSRH and report it.
4.13

Find the recorded protein stability index belonging to VEKVLDRWVDEEWPKRERGDPSRH and report it.
4.34

Find the recorded protein stability index belonging to DEKVLRRWVDEEWPKRERGDPSRH and report it.
4.36

Find the recorded protein stability index belonging to VEKVLRRWVDFEWPKRERGDPSRH and report it.
2.16

Find the recorded protein stability index belonging to VEKVLRRWVDEEWPKRERGDWSRH and report it.
1.89

Find the recorded protein stability index belonging to VEKVLRRWVDEYWPKRERGDPSRH and report it.
1.81

Data origin: the supplement of paper PMC10567573
